Target: UniProtKB O60885
Assay: BRD4 AlphaScreen competition assay (JQ1-biotin displacement), BRD4BD1
Assay type: binding
Settings: read-out: IC50 BRD4BD1
attribute measured: pIC50
pIC50 is defined as minus the log10 of a concentration measured in mol/L.

Lookup: Entry `Cc1sc2c(c1C)C(c1ccc(/C=C/C(N)=O)cc1)=N[C@@H](CC(=O)OC(C)(C)C)c1nnc(C)n1-2` : reported pIC50 = ?
Found: 8.09

Lookup: Consider next the compound `COC(=O)/C=C/c1ccc(C2=N[C@@H](CC(=O)OC(C)(C)C)c3nnc(C)n3-c3sc(C)c(C)c32)cc1` in the same way.
Found: 7.98

Lookup: Param item: `Cc1sc2c(c1C)C(c1ccc(C#CCO)cc1)=N[C@@H](CC(=O)OC(C)(C)C)c1nnc(C)n1-2`
Found: 7.99
